Test system: HCT-116
Test: Cytotoxicity against human HCT116 cells at 5 uM after 24 hrs by MTT assay
Type: functional, cell-based
Active and inactive are the calls of the source. The rule behind the calls is not given here.
Write down the outcome that applies. Available outcomes: 1 = active, 0 = inactive

// below: answered compounds
CC(C)=CCC/C(C)=C/C[C@H]1C[C@]2(C/C=C(\C)CCC=C(C)C)C(=O)[C@@](CC=C(C)C)(C(=O)C(C(=O)c3ccc(O)c(O)c3)=C2O)C1(C)C = 0
CC(C)=CC[C@H]1C[C@@]23C[C@@H](CC=C(C)C)C(C)(C)[C@@](CC=C(C)C)(C(=O)C(C(=O)c4ccc(O)c(O)c4)=C2OC1(C)C)C3=O = 1
CC(C)=CC[C@@H]1C[C@@]23C[C@@H](CC=C(C)C)C(C)(C)[C@](CC=C(C)C)(C(=O)C(C(=O)c4ccc(O)c(O)c4)=C2OC1(C)C)C3=O = 1
CC(C)=CCC/C(C)=C/C[C@@H]1C[C@]2(CC=C(C)C)C(=O)[C@@](CC=C(C)C)(C(=O)C(C(=O)c3ccc(O)c(O)c3)=C2O)[C@@]1(C)CCC=C(C)C = 1
CC(C)=CCC/C(C)=C/C[C@@H]1C[C@]2(CC=C(C)C)C(=O)[C@@](CC=C(C)C)(C(=O)C(C(=O)c3ccc(O)c(O)c3)=C2O)C1(C)C = 1

Req: Status in this test for `CC(C)=CCC/C(C)=C/C[C@@H]1C[C@@]2(C/C=C(\C)CCC=C(C)C)C(=O)[C@](CC=C(C)C)(C(=O)C(C(=O)c3ccc(O)c(O)c3)=C2O)C1(C)C` ?
Resp: 1

Cited source: ChEMBL document CHEMBL1154891
